Values were extracted from patent EP1203770A1.

Target: HIV-1 protease (Human immunodeficiency virus type 1 group M subtype B)
Construct: The protease (or proteinase), consisting of only 99 amino acids, is among the smallest enzymes known
Test: In vitro HIV protease inhibitory assay (HIV Protease FITC Assay)
Type: biochemical
Settings: HIV-1 Dose 1.230 uM; read-out: HIV-1 Protease % Inhib
Known inhibition at 1.23 µM of a selection of molecules
Give a bare numeral; the unit % is implied.

Molecule	System Under Test	inhibition at 1.23 µM [%]
CC(C)(C)c1nc(CCc2cc(O)c(C(c3ccccc3)C3CC3)c(=O)o2)no1 (stereo not shown)	HIV-1 protease (Human immunodeficiency virus type 1 group M subtype B)	24.9
CCC(CC1CCCO1)c1cc(O)c(C(c2ccccc2)C2CC2)c(=O)o1 (stereo not shown)	HIV-1 protease (Human immunodeficiency virus type 1 group M subtype B)	97.7
O=c1oc(CCc2ccccn2)cc(O)c1C(c1ccccc1)C1CC1 (stereo not shown)	HIV-1 protease (Human immunodeficiency virus type 1 group M subtype B)	24.6
Cc1nc(CCc2cc(O)c(C(c3ccccc3)C3CC3)c(=O)o2)cs1 (stereo not shown)	HIV-1 protease (Human immunodeficiency virus type 1 group M subtype B)	22.1
CCC(Cc1ccccn1)c1cc(O)c(C(c2ccccc2)C2CC2)c(=O)o1 (stereo not shown)	HIV-1 protease (Human immunodeficiency virus type 1 group M subtype B)	95.8

The measured inhibition at 1.23 µM associated with CCC(CC1CCOC1)c1cc(O)c(C(c2ccccc2)C2CC2)c(=O)o1 (stereo not shown) reads 94.4

The measured inhibition at 1.23 µM associated with C=CC(C1=C(O)CC2(CCC3(CC2)OCCO3)OC1=O)c1ccccc1 (stereo not shown) reads 15.3

The measured inhibition at 1.23 µM associated with CCC(CC1CCOCC1)c1cc(O)c(C(c2ccccc2)C2CC2)c(=O)o1 (stereo not shown) reads 91.1

The measured inhibition at 1.23 µM associated with CCC(c1ccccc1)c1c(O)c(Br)c(C(CC2CC2)CC2CC2)oc1=O (stereo not shown) reads 86.9

###

Target: HIV-1 protease (Human immunodeficiency virus type 1 group M subtype B, UniProt P04585)
Construct: The protease (or proteinase), consisting of only 99 amino acids, is among the smallest enzymes known
Assay: In vitro HIV protease inhibitory assay (HIV Protease FITC Assay)
Format: biochemical
Details: HIV-1 Dose 33.000 uM; read-out: HIV-1 Protease % Inhib
Protocol: The HIV protease screening assay is based on a fluorescently labeled substrate which can be resolved from nonlabeled cleavage product using avidin-polystyrene particles, 0.7-0.9 µm. […] The labeled cleavage product is separated from the unreacted substrate via filtration and is read on the Idexx Screen Machine. The data are analyzed by appropriate computer algorithms to ascertain percent inhibition values.
Measurement Type: inhibition at 33 µM (%)
Give a bare numeral; the unit % is implied.

Molecule	System Under Test	Measurement Type	Value Unit	Test Value
CCC(CC)c1oc(=O)c(C(c2ccccc2)C2CC2)c(O)c1CCOCCOC (stereo not drawn)	HIV-1 protease (Human immunodeficiency virus type 1 group M subtype B, UniProt P04585)	inhibition at 33 µM	%	88.6
CCC(Cc1c(C)noc1C)c1cc(O)c(C(c2ccccc2)C2CC2)c(=O)o1 (stereo not drawn)	HIV-1 protease (Human immunodeficiency virus type 1 group M subtype B, UniProt P04585)	inhibition at 33 µM	%	117
CCC(CC1CCOCC1)c1cc(O)c(C(c2ccccc2)C2CC2)c(=O)o1 (stereo not drawn)	HIV-1 protease (Human immunodeficiency virus type 1 group M subtype B, UniProt P04585)	inhibition at 33 µM	%	115
O=c1oc(CCC2OCCO2)cc(O)c1C(c1ccccc1)C1CC1 (stereo not drawn)	HIV-1 protease (Human immunodeficiency virus type 1 group M subtype B, UniProt P04585)	inhibition at 33 µM	%	91.3
CCC(C1=C(O)CC2(CCC(=O)CC2)OC1=O)c1ccccc1 (stereo not drawn)	HIV-1 protease (Human immunodeficiency virus type 1 group M subtype B, UniProt P04585)	inhibition at 33 µM	%	103
CCC(CC1CCCOC1)c1cc(O)c(C(c2ccccc2)C2CC2)c(=O)o1 (stereo not drawn)	HIV-1 protease (Human immunodeficiency virus type 1 group M subtype B, UniProt P04585)	inhibition at 33 µM	%	111
CCC(Cc1ccc(Cl)s1)c1cc(O)c(C(c2ccccc2)C2CC2)c(=O)o1 (stereo not drawn)	HIV-1 protease (Human immunodeficiency virus type 1 group M subtype B, UniProt P04585)	inhibition at 33 µM	%	116
CCCc1oc(=O)c(C(CC)c2ccccc2)c(O)c1Br (stereo not drawn)	HIV-1 protease (Human immunodeficiency virus type 1 group M subtype B, UniProt P04585)	inhibition at 33 µM	%	105

Proceed to the following item.
The measured inhibition at 33 µM associated with COCCOCCOCCc1c(C(CC2CC2)CC2CC2)oc(=O)c(C(c2ccccc2)C2CC2)c1O (stereo not drawn) reads 37.1

###

Known pKi of a selection of molecules
Target: HIV-1 protease (Human immunodeficiency virus type 1 group M subtype B)
Construct: The protease (or proteinase), consisting of only 99 amino acids, is among the smallest enzymes known
Experiment: In vitro HIV protease inhibitory assay (HIV Protease FITC Assay)
Format: biochemical
Settings: read-out: HIV-1 FITC Ki
Scale explanation: pKi corresponds to minus log10 of a concentration expressed in moles per litre.

The measured pKi associated with CCC(Cc1cccc(Cl)c1)c1cc(O)c(C(c2ccccc2)C2CC2)c(=O)o1 (stereo not drawn) [Example 156] reads 7.19

The measured pKi associated with CCC(Cc1ccccc1)c1cc(O)c(C(c2cccc(NS(=O)(=O)/C=C/c3ccccc3)c2)C2CC2)c(=O)o1 (stereo not drawn) [Example 180] reads 7.63

The measured pKi associated with CCC(Cc1cccs1)c1cc(O)c(C(c2ccccc2)C2CC2)c(=O)o1 (stereo not drawn) [Example 57] reads 7.20

###

Known inhibition at 1.1 µM of a selection of compounds
Target: HIV-1 protease (Human immunodeficiency virus type 1 group M subtype B)
Construct: The protease (or proteinase), consisting of only 99 amino acids, is among the smallest enzymes known
Experiment: In vitro HIV protease inhibitory assay (HIV Protease FITC Assay)
Type: biochemical
Conditions: HIV-1 Dose 1.100 uM; read-out: HIV-1 Protease % Inhib
Give a bare numeral; the unit % is implied.

Compound	inhibition at 1.1 µM (%)
CCC(CC(=O)OCc1ccccc1)c1cc(O)c(C(c2ccccc2)C2CC2)c(=O)o1 (stereo not shown) [Example 132]	29.1
O=c1oc(CC2CCCC2)cc(O)c1C(c1ccccc1)C1CC1 (stereo not shown) [Example 143]	25.1

Proceed to the following item.
The measured inhibition at 1.1 µM associated with CCC(CC1CCCOC1)c1cc(O)c(C(CC)c2ccccc2)c(=O)o1 (stereo not shown) [Example 135] reads 65.6

###

Target: HIV-1 protease (Human immunodeficiency virus type 1 group M subtype B)
Construct: The protease (or proteinase), consisting of only 99 amino acids, is among the smallest enzymes known
Test: In vitro HIV protease inhibitory assay (HIV Protease FITC Assay)
Format: biochemical
Settings: HIV-1 Dose 10.000 uM
Known HIV-1 Protease % Inhib of a selection of molecules
Give a bare numeral; the unit % is implied.

The measured HIV-1 Protease % Inhib associated with CC(C)CC1(CCc2ccccc2)CC(O)=C(C(CCc2ccccc2)c2ccccc2)C(=O)O1 (stereo not shown) reads 89.15

###

Molecular target: HIV-1 protease (Human immunodeficiency virus type 1 group M subtype B, UniProt P04585)
Construct: The protease (or proteinase), consisting of only 99 amino acids, is among the smallest enzymes known
Assay: In vitro HIV protease inhibitory assay (HIV Protease FITC Assay)
Type: biochemical
Details: HIV-1 Dose 0.123 uM; read-out: HIV-1 Protease % Inhib
Known inhibition at 0.123 µM of a selection of compounds

The measured inhibition at 0.123 µM associated with Cc1ccc(S(=O)(=O)Nc2cccc(C(c3c(O)cc(C(CC4CC4)CC4CCCOC4)oc3=O)C3CC3)c2)cc1 (stereo not shown) [Example 245] reads 25.9%

The measured inhibition at 0.123 µM associated with C=CC(C1=C(O)CC2(CCCCCCC2)OC1=O)c1ccccc1 (stereo not shown) [Example 125] reads < 10%

The measured inhibition at 0.123 µM associated with CCC(Cc1ccccc1)c1cc(O)c(C(c2cccc(NC(=O)c3ccc(C#N)cc3)c2)C2CC2)c(=O)o1 (stereo not shown) [Example 227] reads < 10%

The measured inhibition at 0.123 µM associated with O=c1oc(CCCC(F)(F)F)cc(O)c1C(c1ccccc1)C1CC1 (stereo not shown) [Example 118] reads < 10%

###

Known inhibition at 3.7 µM of a selection of molecules
Molecular target: HIV-1 protease (Human immunodeficiency virus type 1 group M subtype B, UniProt P04585)
Construct: The protease (or proteinase), consisting of only 99 amino acids, is among the smallest enzymes known
Assay: In vitro HIV protease inhibitory assay (HIV Protease FITC Assay)
Format: biochemical
Settings: HIV-1 Dose 3.700 uM; read-out: HIV-1 Protease % Inhib
Give a bare numeral; the unit % is implied.

Observe how each entry below is paired with its result.
Molecule	System Under Test	inhibition at 3.7 µM (%)
CCCc1oc(=O)c(C(CC)c2ccccc2)c(O)c1Br (stereo not shown)	HIV-1 protease (Human immunodeficiency virus type 1 group M subtype B, UniProt P04585)	78.9
CCC(CCOCCOC)c1cc(O)c(C(c2ccccc2)C2CC2)c(=O)o1 (stereo not shown)	HIV-1 protease (Human immunodeficiency virus type 1 group M subtype B, UniProt P04585)	101
O=c1oc(CCc2ccc3ccccc3n2)cc(O)c1C(c1ccccc1)C1CC1 (stereo not shown)	HIV-1 protease (Human immunodeficiency virus type 1 group M subtype B, UniProt P04585)	23.4
CCCc1oc(=O)c(C(c2ccccc2)C2CC2)c(O)c1CCOCCOC (stereo not shown)	HIV-1 protease (Human immunodeficiency virus type 1 group M subtype B, UniProt P04585)	93.2
Cc1nc(CCc2cc(O)c(C(c3ccccc3)C3CC3)c(=O)o2)cs1 (stereo not shown)	HIV-1 protease (Human immunodeficiency virus type 1 group M subtype B, UniProt P04585)	55.5
CCC(Cc1ccccn1)c1cc(O)c(C(c2ccccc2)C2CC2)c(=O)o1 (stereo not shown)	HIV-1 protease (Human immunodeficiency virus type 1 group M subtype B, UniProt P04585)	101

The measured inhibition at 3.7 µM associated with CCC(CC1CCCCO1)c1cc(O)c(C(c2ccccc2)C2CC2)c(=O)o1 (stereo not shown) reads 108

The measured inhibition at 3.7 µM associated with O=c1oc(CCC2OCCO2)cc(O)c1C(c1ccccc1)C1CC1 (stereo not shown) reads 50

The measured inhibition at 3.7 µM associated with C=CC(C1=C(O)CC2(CCC3(CC2)OCCO3)OC1=O)c1ccccc1 (stereo not shown) reads 42.8
